biological target: Metabotropic glutamate receptor 4 (Homo sapiens); test: Negative allosteric modulation of human mGlu4 receptor expressed in CHO cells co-expressing Gqi5 harboring GIRK channel assessed as decrease in glutamate-induced thallium flux incubated for 142 secs followed by glutamate addition measured after 120 secs by Fluo4-AM dye based fluorescence assay
Sequence (Q14833 whole entry): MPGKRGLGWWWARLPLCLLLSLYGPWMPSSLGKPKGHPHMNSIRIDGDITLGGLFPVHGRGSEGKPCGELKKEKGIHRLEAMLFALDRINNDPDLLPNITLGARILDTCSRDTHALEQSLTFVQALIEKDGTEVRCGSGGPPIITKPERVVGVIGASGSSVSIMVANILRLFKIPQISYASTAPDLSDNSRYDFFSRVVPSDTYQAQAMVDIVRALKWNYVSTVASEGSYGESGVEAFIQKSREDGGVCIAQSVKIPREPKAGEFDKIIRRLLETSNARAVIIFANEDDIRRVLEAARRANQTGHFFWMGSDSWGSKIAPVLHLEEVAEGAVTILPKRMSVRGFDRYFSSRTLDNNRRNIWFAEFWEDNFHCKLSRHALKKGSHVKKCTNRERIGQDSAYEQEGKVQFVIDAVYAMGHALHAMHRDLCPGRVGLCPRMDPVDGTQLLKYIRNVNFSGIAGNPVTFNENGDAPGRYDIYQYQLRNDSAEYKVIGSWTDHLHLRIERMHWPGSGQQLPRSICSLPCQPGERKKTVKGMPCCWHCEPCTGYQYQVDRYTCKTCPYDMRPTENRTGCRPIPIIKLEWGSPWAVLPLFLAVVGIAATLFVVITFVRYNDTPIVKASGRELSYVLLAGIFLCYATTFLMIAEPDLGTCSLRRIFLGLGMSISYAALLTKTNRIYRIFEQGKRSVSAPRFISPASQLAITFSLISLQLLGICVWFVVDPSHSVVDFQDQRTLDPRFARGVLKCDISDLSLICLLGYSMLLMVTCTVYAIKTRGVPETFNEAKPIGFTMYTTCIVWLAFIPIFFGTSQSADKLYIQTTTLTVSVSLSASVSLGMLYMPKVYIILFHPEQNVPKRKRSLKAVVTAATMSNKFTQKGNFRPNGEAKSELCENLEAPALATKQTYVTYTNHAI
pIC50: −log10 of the molar value.

{"COMPOUND": "CCc1nc2c(o1)CC(c1ccc(C)cc1C)CC2=O (stereo unspecified)", "pIC50": "< 5.00"}

----------
The molecules listed here are annotated with their Kp uu at […].
experiment: Unbound brain to plasma concentration ratio in Sprague-Dawley rat at 0.2 to […], iv administered as cassette dose measured at […] post dose by LC-MS/MS analysis; assay type: ADME, organism-based; conditions: brain and plasma, read-out: K(p,uu,brain)

{"COMPOUND STRUCTURE": "COc1ccc(-c2c(C)nn3c(C(F)(F)F)cc(C)nc23)c(F)c1", "Kp uu at […]": 0.9}
{"COMPOUND STRUCTURE": "Cc1cc(C(F)(F)F)n2nc(C)c(-c3ccc(OC(F)F)cc3)c2n1", "Kp uu at […]": 0.8}
{"COMPOUND STRUCTURE": "COc1ccc(-c2c(C)nn3c(C(F)(F)F)cc(C)nc23)cc1Cl", "Kp uu at […]": 1.7}

----------
assay: Brain to plasma partition coefficient, Kp of the compound in C57BL/6 mouse at 10 mg/kg, ip measured after 60 mins by LC-MS/MS analysis; type: ADME, organism-based; settings: brain and plasma

{"COMPOUND STRUCTURE": "COc1ccc(-c2c(C)nn3c(C(F)(F)F)cc(C)nc23)c(F)c1F", "Kp at 1 h": 2.1}

----------
target: L-type calcium channel, dihydropyridine site (Rattus norvegicus, UniProt P22002+P27732+Q02485); assay: Inhibition of rat L-type calcium channel dihydropyridine site at 10 uM relative to control; format: protein assay

{"COMPOUND STRUCTURE": "COc1ccc(-c2c(C)nn3c(C(F)(F)F)cc(C)nc23)c(F)c1F", "inhibition at 10 µM": "< 50%"}

----------
target: Metabotropic glutamate receptor 8 (Rattus norvegicus, UniProt P70579); assay: Negative allosteric modulation of rat mGlu8 receptor expressed in HEK cells co-expressing Galphai5 assessed as decrease in glutamate-induced thallium flux incubated for 142 secs followed by glutamate addition measured after 120 secs by Fluo4-AM dye based fluorescence assay
Sequence (P70579 whole entry): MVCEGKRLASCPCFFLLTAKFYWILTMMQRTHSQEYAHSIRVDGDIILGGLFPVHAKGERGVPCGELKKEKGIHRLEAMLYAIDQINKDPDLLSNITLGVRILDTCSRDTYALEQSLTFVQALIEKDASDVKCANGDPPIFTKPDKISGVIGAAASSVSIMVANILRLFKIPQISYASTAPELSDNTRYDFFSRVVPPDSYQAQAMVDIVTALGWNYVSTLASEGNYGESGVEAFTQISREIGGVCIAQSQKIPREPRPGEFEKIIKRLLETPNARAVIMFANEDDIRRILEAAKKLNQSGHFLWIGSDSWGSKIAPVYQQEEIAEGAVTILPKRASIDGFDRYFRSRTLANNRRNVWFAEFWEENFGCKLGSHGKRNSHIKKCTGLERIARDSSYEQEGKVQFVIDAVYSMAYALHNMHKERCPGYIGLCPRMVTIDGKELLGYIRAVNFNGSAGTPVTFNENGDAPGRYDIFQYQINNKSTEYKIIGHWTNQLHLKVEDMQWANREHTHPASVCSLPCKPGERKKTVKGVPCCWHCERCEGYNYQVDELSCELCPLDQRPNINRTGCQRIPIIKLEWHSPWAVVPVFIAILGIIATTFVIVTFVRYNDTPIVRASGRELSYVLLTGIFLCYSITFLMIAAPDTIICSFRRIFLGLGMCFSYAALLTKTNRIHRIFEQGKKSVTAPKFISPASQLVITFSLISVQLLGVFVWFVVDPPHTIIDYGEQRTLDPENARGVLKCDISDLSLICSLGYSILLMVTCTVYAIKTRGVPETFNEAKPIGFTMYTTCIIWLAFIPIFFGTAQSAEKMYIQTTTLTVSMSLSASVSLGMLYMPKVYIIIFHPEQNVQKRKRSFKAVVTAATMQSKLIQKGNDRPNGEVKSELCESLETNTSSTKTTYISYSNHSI
pIC50: −log10 of the molar value.

{"COMPOUND": "CCc1nc2c(o1)CC(c1ccc(C)cc1C)CC2=O (stereo unspecified)", "pIC50": "< 5.00"}

----------
target: UniProtKB P35400; experiment: Positive allosteric modulation of rat mGlu7 receptor expressed in HEK cells co-expressing Galphai5 assessed as increase in glutamate-induced calcium flux incubated for 142 secs followed by glutamate addition measured after 120 secs by Fluo4-AM dye based fluorescence assay
Sequence (P35400 whole entry): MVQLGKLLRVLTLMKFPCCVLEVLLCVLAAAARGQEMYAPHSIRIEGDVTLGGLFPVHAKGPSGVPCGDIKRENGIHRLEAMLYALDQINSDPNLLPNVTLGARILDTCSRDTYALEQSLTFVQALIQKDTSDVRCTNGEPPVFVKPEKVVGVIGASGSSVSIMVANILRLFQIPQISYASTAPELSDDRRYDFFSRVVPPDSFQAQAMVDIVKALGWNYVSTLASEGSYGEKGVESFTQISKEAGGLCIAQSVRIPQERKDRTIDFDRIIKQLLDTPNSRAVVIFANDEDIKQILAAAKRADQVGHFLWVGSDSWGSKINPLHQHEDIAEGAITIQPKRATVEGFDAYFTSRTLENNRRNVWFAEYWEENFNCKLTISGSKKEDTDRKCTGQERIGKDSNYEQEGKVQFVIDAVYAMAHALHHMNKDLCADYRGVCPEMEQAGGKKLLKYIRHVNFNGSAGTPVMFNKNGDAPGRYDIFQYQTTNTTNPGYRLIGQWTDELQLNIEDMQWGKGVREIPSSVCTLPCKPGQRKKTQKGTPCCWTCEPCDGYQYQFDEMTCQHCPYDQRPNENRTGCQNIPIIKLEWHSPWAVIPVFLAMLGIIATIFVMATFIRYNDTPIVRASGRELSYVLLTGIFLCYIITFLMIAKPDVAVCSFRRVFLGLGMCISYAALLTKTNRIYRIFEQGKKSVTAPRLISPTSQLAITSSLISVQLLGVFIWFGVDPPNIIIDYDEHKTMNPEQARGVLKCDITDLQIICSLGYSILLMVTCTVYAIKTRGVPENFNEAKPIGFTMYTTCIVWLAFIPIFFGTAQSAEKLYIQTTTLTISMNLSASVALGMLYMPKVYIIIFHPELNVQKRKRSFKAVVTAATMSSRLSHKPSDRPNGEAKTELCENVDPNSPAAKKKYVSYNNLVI
READOUT: EC50 (µM)

{"COMPOUND STRUCTURE": "COC(=O)c1ccc(-n2c(C)cc(C(=O)CSc3ccc(NC(C)=O)cc3)c2C)cc1", "ASSAY TARGET": "UniProtKB P35400", "RESULT": 1.5}

----------
molecular target: Metabotropic glutamate receptor 6 (Homo sapiens); test: Negative allosteric modulation of human mGlu6 receptor expressed in HEK cells harboring GIRK channel assessed as decrease in glutamate-induced thallium flux incubated for 142 secs followed by glutamate addition measured after 120 secs by Fluo4-AM dye based fluorescence assay
Sequence (O15303 whole entry): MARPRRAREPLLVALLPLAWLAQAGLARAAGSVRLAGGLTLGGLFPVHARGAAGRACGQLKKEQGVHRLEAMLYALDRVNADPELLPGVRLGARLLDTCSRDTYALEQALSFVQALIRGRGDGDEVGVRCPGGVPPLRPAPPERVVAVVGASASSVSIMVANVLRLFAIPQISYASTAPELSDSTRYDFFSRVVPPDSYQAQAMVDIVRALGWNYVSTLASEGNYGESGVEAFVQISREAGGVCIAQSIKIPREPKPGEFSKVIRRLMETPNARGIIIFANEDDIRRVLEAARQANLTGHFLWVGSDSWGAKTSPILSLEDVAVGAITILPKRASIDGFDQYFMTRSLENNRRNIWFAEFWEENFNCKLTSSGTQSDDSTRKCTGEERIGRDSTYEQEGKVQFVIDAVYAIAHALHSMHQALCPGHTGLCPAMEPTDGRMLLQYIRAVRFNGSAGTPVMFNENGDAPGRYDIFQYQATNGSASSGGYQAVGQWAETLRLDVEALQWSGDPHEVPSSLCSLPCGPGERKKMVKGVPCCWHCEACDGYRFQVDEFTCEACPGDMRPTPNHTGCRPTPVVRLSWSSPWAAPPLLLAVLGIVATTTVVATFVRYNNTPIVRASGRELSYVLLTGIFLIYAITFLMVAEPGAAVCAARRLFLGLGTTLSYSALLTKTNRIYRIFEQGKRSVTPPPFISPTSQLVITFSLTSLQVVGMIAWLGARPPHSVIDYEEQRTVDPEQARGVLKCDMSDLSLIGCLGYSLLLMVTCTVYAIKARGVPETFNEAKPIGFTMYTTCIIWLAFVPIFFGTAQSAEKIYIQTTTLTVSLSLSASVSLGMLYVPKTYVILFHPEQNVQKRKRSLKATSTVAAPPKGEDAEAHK
READOUT: IC50

{"COMPOUND STRUCTURE": "COc1ccc(-c2c(C)nn3c(C(F)(F)F)cc(C)nc23)c(F)c1F", "READOUT": "IC50", "RESULT": "> 10 µM"}
